PROCEDURE_SUMMARY: In vivo ocular bioavailability of THC after topical formulations
CONDITION_DETAILS: male, New Zealand albino, rabbit, cornea, topical, 50 μL of 0.37% w/v THC
PROPERTY_LABEL: concentration at 1 h (ng/g)
Quick reminder: number only, in ng/g, skip the unit.

// query What value of measured concentration at 1 h is listed for CCCCCc1cc(O)c2c(c1)OC(C)(C)C1CCC(C)=CC21 (stereo not shown) [THC, Δ^9-Tetrahydrocannabinol, reference compound] ?
// result 6010

* * *

Known Drug remaining of a selection of compounds
PROCEDURE_SUMMARY: Thermal stability, 120° C. for 10 min
Type: physicochemical
CONDITION_DETAILS: 120° C. for 10 min
Reply with the number, then its unit.

// query Name the recorded Drug remaining for CCCCCc1cc(O)c2c(c1)OC(C)(C)C1CCC(C)=CC21 (stereo not drawn) [THC, Δ^9-Tetrahydrocannabinol, reference compound] .
// result 1214.10 ± 39.12 µg

// query // Drug remaining lookup, key: CCCCCc1cc(OC(=O)CNC)c2c(c1)OC(C)(C)[C@@H]1CCC(C)=C[C@@H]21 [THC-Sarcosinate (7), Δ^9-THC-sarcosinate]
// result 841.38 ± 40.18 µg

// query May I ask what Drug remaining has been recorded for CCCCCc1cc(OC(=O)CCCc2ccc(NC(=O)CCC(=O)O)cc2)c2c(c1)OC(C)(C)[C@@H]1CCC(C)=C[C@@H]21 [THC-APB-HS (14)] ?
// result 1518.84 ± 34.38 µg

* * *

PROCEDURE_SUMMARY: Chemical stability pH dependent at 25° C.
Type: physicochemical
CONDITION_DETAILS: Buffer pH 5.0, 25° C.
PROPERTY_LABEL: First order rate constant

// worked examples, First order rate constant included
| MOLECULE | First order rate constant |
| --- | --- |
| CCCCCc1cc(OC(=O)[C@@H](N)Cc2c[nH]c3ccccc23)c2c(c1)OC(C)(C)[C@@H]1CCC(C)=C[C@@H]21 [THC-Tryptophanate (10), Δ^9-THC-tryptophinate] | 0.00829 h⁻¹ |
| CCCCCc1cc(O)c2c(c1)OC(C)(C)C1CCC(C)=CC21 (stereo not drawn) [THC, Δ^9-Tetrahydrocannabinol, reference compound] | 0.017 h⁻¹ |

// query Which First order rate constant is reported for this molecule? CCCCCc1cc(OC(=O)C(N)CC(C)C)c2c(c1)OC(C)(C)C1CCC(C)=CC21 (stereo not drawn) [THC-Leucinate (8), Δ^9-THC-leucinate]
// result 15.94 ± 3.38 ×10^−3 h^−1

// query Requested read-out: First order rate constant. Entry: CCCCCc1cc(OC(=O)[C@@H](N)Cc2ccc(O)cc2)c2c(c1)OC(C)(C)[C@@H]1CCC(C)=C[C@@H]21 [THC-Tyrosinate (11), Δ^9-THC-tyrosinate]
// result 6.32 ± 3.14 ×10^−3 h^−1

// query Value lookup for First order rate constant; key = CCCCCc1cc(OC(=O)[C@@H](N)CCC(N)=O)c2c(c1)OC(C)(C)[C@@H]1CCC(C)=C[C@@H]21 [THC-Glutaminate (9), Δ^9-THC-glutaminate]
// result 70.23 ± 0.92 ×10^−3 h^−1

* * *

PROCEDURE_SUMMARY: Aqueous solubility, pH dependent
Assay type: physicochemical
CONDITION_DETAILS: pH 1.2
Label scheme for Aqueous Solubility: lower than 40 µg/mL is criterion not met, 40 µg/mL and above is criterion met.

// below: answered molecules
| MOLECULE | CLASS_ASSIGNMENT |
| --- | --- |
| CCCCCc1cc(OC(=O)C(N)Cc2c[nH]c3ccccc23)c2c(c1)OC(C)(C)C1CCC(C)=CC21.O=C(O)CC(=O)O (centres unmarked) [THC-Tryptophanate Malonate] | criterion not met |
| CCCCCc1cc(OC(=O)[C@@H](N)C(C)C)c2c(c1)OC(C)(C)C1CCC(C)=CC21.O=C(O)CC(=O)O (some centres unmarked) [THC-Valinate malonate] | criterion met |
| CCCCCc1cc(OC(=O)[C@@H](N)Cc2ccc(O)cc2)c2c(c1)OC(C)(C)[C@@H]1CCC(C)=C[C@@H]21 [THC-Tyrosinate (11), Δ^9-THC-tyrosinate] | criterion met |
| CCCCCc1cc(OC(=O)C(NC(=O)CCC(=O)O)C(C)C)c2c(c1)OC(C)(C)C1CCC(C)=CC21 (centres unmarked) [THC-Valinate-HS (15), THC-valinate-hemisuccinate] | criterion not met |
| CCCCCc1cc(OC(=O)C(N)C(C)C)c2c(c1)OC(C)(C)C1CCC(C)=CC21 (centres unmarked) [THC-Valinate (6), Δ^9-THC-valinate] | criterion not met |
| CCCCCc1cc(OC(=O)CNC)c2c(c1)OC(C)(C)[C@@H]1CCC(C)=C[C@@H]21 [THC-Sarcosinate (7), Δ^9-THC-sarcosinate] | criterion met |
| CCCCCc1cc(OC(=O)C(N)CC(C)C)c2c(c1)OC(C)(C)C1CCC(C)=CC21 (centres unmarked) [THC-Leucinate (8), Δ^9-THC-leucinate] | criterion not met |

Let's switch to this molecule now.
// query Kindly determine if Aqueous Solubility recorded for CCCCCc1cc(OC(=O)[C@@H](N)CCC(N)=O)c2c(c1)OC(C)(C)[C@@H]1CCC(C)=C[C@@H]21 [THC-Glutaminate (9), Δ^9-THC-glutaminate] is above or exactly 40 µg/mL.
// result criterion met
